human PTPN1 (1-435) (Homo sapiens (Human), UniProt P18031) IC50 data
Sequence (P18031 whole entry): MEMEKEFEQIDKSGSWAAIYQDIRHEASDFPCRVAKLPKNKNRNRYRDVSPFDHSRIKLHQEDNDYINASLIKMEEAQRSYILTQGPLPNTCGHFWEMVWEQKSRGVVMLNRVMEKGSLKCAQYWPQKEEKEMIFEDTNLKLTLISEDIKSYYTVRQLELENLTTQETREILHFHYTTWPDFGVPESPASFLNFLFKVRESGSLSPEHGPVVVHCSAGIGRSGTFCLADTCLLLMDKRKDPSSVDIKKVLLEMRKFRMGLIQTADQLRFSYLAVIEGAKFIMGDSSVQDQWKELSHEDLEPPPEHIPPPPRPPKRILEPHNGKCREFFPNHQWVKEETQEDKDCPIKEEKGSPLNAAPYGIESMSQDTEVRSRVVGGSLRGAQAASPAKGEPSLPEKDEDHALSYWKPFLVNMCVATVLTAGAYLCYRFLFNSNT
# number then unit; no other words

Study these solved cases before continuing.
O=P(O)(O)C(F)(F)c1sc2ccc(-c3nnc[nH]3)cc2c1Br = 1000 nM
C[C@H](NC(=O)c1ccc2sc(C(F)(F)P(=O)(O)O)c(Br)c2c1)c1cccnc1 = 976 nM

# query: IC50 | item Cc1cc(CNC(=O)c2ccc3sc(C(F)(F)P(=O)(O)O)c(Br)c3c2)no1 | system: human PTPN1 (1-435) (Homo sapiens (Human), UniProt P18031) 1020 nM

The measured values listed here are drawn from patent US20250059220A1.
